Measured values drawn from paper PMC11202288 for this set.

Target: hDAT (human dopamine transporter) (Homo sapiens)
Construct: gene SLC6A3; full-length human DAT stably expressed in HEK293 cells; membrane preparation
Sequence (Q01959 whole entry): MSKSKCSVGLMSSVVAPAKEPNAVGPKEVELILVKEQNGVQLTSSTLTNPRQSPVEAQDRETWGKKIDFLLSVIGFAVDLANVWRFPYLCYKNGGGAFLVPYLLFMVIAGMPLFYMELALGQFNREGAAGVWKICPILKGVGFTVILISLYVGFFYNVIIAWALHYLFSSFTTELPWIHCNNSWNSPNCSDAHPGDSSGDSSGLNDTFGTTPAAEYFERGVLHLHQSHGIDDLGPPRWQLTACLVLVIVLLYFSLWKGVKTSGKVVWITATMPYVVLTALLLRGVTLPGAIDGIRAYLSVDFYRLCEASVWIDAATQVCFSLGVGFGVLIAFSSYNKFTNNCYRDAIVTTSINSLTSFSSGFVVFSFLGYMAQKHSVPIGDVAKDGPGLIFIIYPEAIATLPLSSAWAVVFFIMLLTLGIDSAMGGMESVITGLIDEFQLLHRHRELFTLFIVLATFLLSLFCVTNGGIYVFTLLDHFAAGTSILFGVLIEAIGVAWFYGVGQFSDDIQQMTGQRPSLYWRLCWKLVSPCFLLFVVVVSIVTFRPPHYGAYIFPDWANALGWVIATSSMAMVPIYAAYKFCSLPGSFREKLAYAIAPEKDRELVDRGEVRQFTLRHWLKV
Test: [3H]WIN35, […] competition binding, HEK293-hDAT membranes
READOUT_TYPE: pKi
Note on pKi: it is the negative log10 of concentration, concentration in mol/L.

Record CC(O)CN1[C@H](C)CN(CCSC(c2ccc(F)cc2)c2ccc(F)cc2)C[C@@H]1C (stereo partly shown) . Reported pKi: 7.30
